Target Entity: AMPK
Run Description: AMPK activation, enzyme-linked immunosorbent assay
Type: biochemical
Condition Set: Table 12, compounds of Table 5
Description: Compounds of Table 1 were assayed for their ability to activate AMPK using an enzyme-linked immunosorbent assay. Compounds of Table 2 were assayed for their ability to activate AMPK using an enzyme-linked immunosorbent assay. Compounds of Table 3 were assayed for their ability to activate AMPK using an enzyme-linked immunosorbent assay. Compounds of Table 4 were assayed for their ability to activate AMPK using an enzyme-linked immunosorbent assay. […]
Listing: EC50 of selected compounds

Take a look at these entries with their results.
Line Notation	EC50
N#Cc1ccc(CN2CCC(Oc3ccc(C(=O)NC4CCN(Cc5ccccc5)CC4)cc3F)CC2)cc1	< 1000 nM
O=C(NC1CCN(Cc2ccccc2)CC1)c1ccc(OC2CCN(Cc3ccc4c(c3)OCCO4)CC2)c(Cl)c1	< 1000 nM
CC(C)(C)OC(=O)N1CCN(C(=O)c2ccc(OC3CCN(Cc4ccccc4)CC3)cc2)CC1	1000 to 10000 nM
N#Cc1ccc(CN2CCC(NC(=O)c3cccc(OC4CCN(Cc5ccc(-n6cccn6)cc5)CC4)c3)CC2)cc1	< 1000 nM
O=C(NC1CCN(Cc2ccccn2)CC1)c1ccc(OC2CCN(c3ccc(C(F)(F)F)cc3)CC2)c(F)c1	< 1000 nM

The reported EC50 of the compound `O=C(NC1CCN(Cc2ccc(F)cc2)CC1)c1ccc(OC2CCN(c3ccc(C(F)(F)F)cc3)CC2)c(F)c1` was < 1000 nM

Kindly note the recorded EC50 for `CC(C)(C)C(=O)N1CCC(Oc2ccc(C(=O)NC3CCN(Cc4ccccc4)CC3)cc2Cl)CC1` , which is < 1000 nM

Per the record, `O=C(NC1CCN(Cc2ccccc2)CC1)c1cccc(OC2CCN(Cc3ccc(C(F)(F)F)cc3)CC2)c1` has EC50 of 1000 to 10000 nM
